# IC50 (nM), efferocytosis by human macrophages, Donor C per record follows
Target: T1, human MerTK on human macrophages (human, UniProt Q12866 21-999)
T1 sequence: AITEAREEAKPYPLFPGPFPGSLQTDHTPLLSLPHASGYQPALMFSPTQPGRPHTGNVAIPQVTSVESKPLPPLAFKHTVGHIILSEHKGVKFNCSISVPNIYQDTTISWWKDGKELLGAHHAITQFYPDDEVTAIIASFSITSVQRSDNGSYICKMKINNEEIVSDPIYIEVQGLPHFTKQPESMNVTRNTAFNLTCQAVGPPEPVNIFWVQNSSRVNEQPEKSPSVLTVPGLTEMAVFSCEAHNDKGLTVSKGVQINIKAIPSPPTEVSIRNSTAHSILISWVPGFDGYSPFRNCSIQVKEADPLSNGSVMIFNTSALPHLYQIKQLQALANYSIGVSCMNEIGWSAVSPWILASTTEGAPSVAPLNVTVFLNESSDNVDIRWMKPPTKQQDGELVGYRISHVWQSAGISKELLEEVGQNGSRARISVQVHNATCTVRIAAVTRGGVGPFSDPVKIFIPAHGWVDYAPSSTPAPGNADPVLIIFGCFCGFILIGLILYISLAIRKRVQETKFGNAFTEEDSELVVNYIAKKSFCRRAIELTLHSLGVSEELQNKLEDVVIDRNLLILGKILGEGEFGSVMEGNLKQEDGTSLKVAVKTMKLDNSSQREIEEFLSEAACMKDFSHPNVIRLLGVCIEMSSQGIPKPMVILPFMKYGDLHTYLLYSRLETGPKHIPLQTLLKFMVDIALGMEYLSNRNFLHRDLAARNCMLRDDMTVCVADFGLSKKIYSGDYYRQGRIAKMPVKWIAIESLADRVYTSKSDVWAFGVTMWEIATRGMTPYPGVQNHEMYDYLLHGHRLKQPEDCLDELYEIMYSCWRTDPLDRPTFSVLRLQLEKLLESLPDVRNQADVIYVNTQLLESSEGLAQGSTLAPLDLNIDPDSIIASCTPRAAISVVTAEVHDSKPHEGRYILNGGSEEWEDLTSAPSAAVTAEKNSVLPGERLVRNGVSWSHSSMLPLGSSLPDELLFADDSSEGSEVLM
Assay: cell-based or functional assay
Output spec: scalar in nM, unitless text.

Worked cases, IC50 (nM), efferocytosis by human macrophages, Donor C given:
{"columns": ["binder", "observed-result"],
 "data": [
  ["h9E3.FN.v16 (antibody, V domains shown, Humanized, human IgG1; also called 9E3.FN Humanized polished mAb) VH: EVQLVESGGGLIQPGGSLRLSCAASGFSLSSNAMSWVRQAPGKGLEWVSIISSSGSTYSASWAKGRFTISKDNSKNTLYLQMNSLRAEDTAVYYCARVGFFVGYGAYDYGIIHRLDLWGQGTLVTVSS VL: DIQLTQSPSTLSASVGDRVTITCQSSKSIYNNNWLSWYQQKPGKPPKLLIYDASDLASGVPSRFSGSGSGTEFTLTISSLQPDDFATYYCAGGYSGDSDYAFGGGTKVEIK", 1.5],
  ["h13B4.v16 (antibody, V domains shown, Humanized, human IgG1; also called 13B4 Fully Humanized; 13B4 Humanized polished mAb) VH: EVQLVESGEGLVQPGGSLRLSCAASGFSLSSYAMGWVRQAPGKGLEYVGIINSYGNTYYANWAKGRFTISRDNSKNTVYLQMGSLRAEDMAVYYCARDPGVSSNLWGRGTLVTVSS VL: DIQMTQSPSTLSASVGDRVTITCQASQNIYSGLAWYQQKPGKAPKLLIYGASKLASGVPSRFSGSGSGTEFTLTISSLQPDDFATYYCQATYYSSNSVAFGGGTKVEIK", 0.09],
  ["h10F7.v16 (antibody, V domains shown, Humanized, human IgG1; also called 10F7 Fully Humanized; 10F7 Humanized polished mAb) VH: EVQLVESGGGLVQPGGSLRLSCAVSGFSLSGYAMSWVRQAPGKGLEYIGVISSSGSSYYPSWAKGRFTISKDNSKNTLYLQMGSLRAEDMAVYYCARVQFYVGYAVYGYGIIDRLDLWGQGTLVTVSS VL: DIVLTQSPDSLAVSLGERATINCQSSKSVYNNNWLSWYQQKPGQPPKLLIYRASTLESGVPDRFSGSGSGTDFTLTISSLQAEDVAVYFCAGGYSSSSSANAFGGGTKVEIK", 0.27]
]}

The record that follows has no IC50 (nM), efferocytosis by human macrophages, Donor C shown yet.
Lab note: measured IC50 (nM), efferocytosis by human macrophages, Donor C of h10C3.v14 (antibody, V domains shown, Humanized, human IgG1; also called 10C3 Humanized polished mAb) VH: EVQLVESGGGLVQPGGSLRLSCAASGFSLSGYTMGWVRQAPGKGLEYIGVISSGGTTYYTNWAKGRFTISKDNSKNTLYLQMGSLRAEDMAVYYCARVAFTAYGGGGFPTLHRLDLWGQGTLVTVSS VL: DQVLTQSPDSLAVSLGERATINCQSSESVYNNDYLAWYQQKPGQPPKLLIYSASTLASGVPDRFSGSGSGTDFTLTISSLQAEDVAVYYCAGGYLGNNVFGGGTKVEIK was 1.2
